- TARGET: T1, streptavidin (UniProt P22629 37-163, limits assumed)
- T1 construct: amine-coupled to a CM5 chip for SPR; also called SA
- T1 sequence (P22629 37-163 limits assumed): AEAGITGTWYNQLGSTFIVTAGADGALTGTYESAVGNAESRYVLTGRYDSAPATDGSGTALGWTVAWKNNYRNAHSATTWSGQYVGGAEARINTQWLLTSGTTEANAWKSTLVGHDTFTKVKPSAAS
- ASSAY_METHOD_TEXT: SPR, Biacore X100, streptavidin on CM5 chip, peptide in solution
pKd: −log10 of the molar value.
Label Y when pKd is at or above 5; otherwise label N.

1) H-EWVHPQFEQKAK-NH2 (free peptide) [NH2-EWVHPQFEQKAK-amide]    Y
2) H-WTHPQFEQK-OH (free peptide, C-terminal carboxylic acid) [NH2-WTHPQFEQK-COOH]    N
3) H-AFDYLAQYHGG-NH2 (free peptide) [NH2-AFDYLAQYHGG-amide]    Y
4) H-SAWSHPQFEK-OH (free peptide, C-terminal carboxylic acid; bought from IBA; also called Strep-tag II peptide; Strep-Tag II) [NH2-SAWSHPQFEK-COOH]    N
5) H-AFPDYLAEYHGG-NH2 (free peptide) [NH2-AFPDYLAEYHGG-amide]    Y
6) H-RDPAPAWAHGGG-NH2 (free peptide) [NH2-RDPAPAWAHGGG-amide]    Y

Next, consider the following binder.
stdin: Entry H-ADYLAEYHGG-OH (free peptide, C-terminal carboxylic acid) [NH2-ADYLAEYHGG-COOH] : is its pKd no less than 5?
stdout: N

Just for reference, patent US20160305952A1 is where these values come from.
